B1: TPR 5TU (parent)
chain: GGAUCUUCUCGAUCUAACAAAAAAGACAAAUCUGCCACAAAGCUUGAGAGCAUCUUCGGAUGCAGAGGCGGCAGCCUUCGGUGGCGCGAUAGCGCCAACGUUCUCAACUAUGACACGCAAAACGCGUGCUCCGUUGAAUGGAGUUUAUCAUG

Variants of: B1
Experiment notes: polymerase ribozyme fitness, log enrichment relative to wild type (log ratio); higher = more active; in vitro selection for triplet polymerase activity
Variants at the floor of the assay were thinned out.
Value type: polymerase ribozyme fitness (log ratio)

>  <Mutation key>
U6G A41C G42A U56C C85A C99A

>  <Comparison operator>
≤

>  <Endpoint value>
-4.2

$$$$
>  <Mutation key>
U4A U53A U82A A91U A115G U148G

>  <Comparison operator>
≤

>  <Endpoint value>
-4.2

$$$$
>  <Mutation key>
C5G C14G C96A

>  <Comparison operator>
=

>  <Endpoint value>
-2.31

$$$$
>  <Mutation key>
A41G G50C C125U A142G

>  <Comparison operator>
=

>  <Endpoint value>
-3.92

$$$$
>  <Mutation key>
C35A C85A

>  <Comparison operator>
=

>  <Endpoint value>
-3.65

$$$$
>  <Mutation key>
A37C C116G

>  <Comparison operator>
=

>  <Endpoint value>
-0.143

$$$$
>  <Mutation key>
U15G A28U G46C C57U C85A G86U U90A C95U C105U

>  <Comparison operator>
≤

>  <Endpoint value>
-4.2

$$$$
>  <Mutation key>
U4A G83U C95G G124U U148C

>  <Comparison operator>
≤

>  <Endpoint value>
-4.2

$$$$
>  <Mutation key>
C54U C85U C95A

>  <Comparison operator>
=

>  <Endpoint value>
-1.84

$$$$
>  <Mutation key>
C8A A12U C35G G92U C103G

>  <Comparison operator>
=

>  <Endpoint value>
-3.99

$$$$
>  <Mutation key>
A40C U55G G58A U130A U135C

>  <Comparison operator>
≤

>  <Endpoint value>
-4.2

$$$$
>  <Mutation key>
G50C G58A C125A

>  <Comparison operator>
=

>  <Endpoint value>
-3.17

$$$$
>  <Mutation key>
C27U G62U A120C A122U

>  <Comparison operator>
=

>  <Endpoint value>
-2.46

$$$$
>  <Mutation key>
C93G C108G A142C C149U U151G

>  <Comparison operator>
≤

>  <Endpoint value>
-4.2

$$$$
>  <Mutation key>
A21C A110C

>  <Comparison operator>
≤

>  <Endpoint value>
-4.2

$$$$
>  <Mutation key>
A89U U127C G136C A137C

>  <Comparison operator>
=

>  <Endpoint value>
-4.13

$$$$
>  <Mutation key>
A41U C96A C105A G117U U144G

>  <Comparison operator>
≤

>  <Endpoint value>
-4.2

$$$$
>  <Mutation key>
A22C C69G G81C

>  <Comparison operator>
=

>  <Endpoint value>
-1.85

$$$$
>  <Mutation key>
U55G G62A C116G

>  <Comparison operator>
=

>  <Endpoint value>
-1.02

$$$$
>  <Mutation key>
U53A G58C

>  <Comparison operator>
=

>  <Endpoint value>
-1.52

$$$$
>  <Mutation key>
A52U G59A A98G

>  <Comparison operator>
=

>  <Endpoint value>
-1.21

$$$$
>  <Mutation key>
A47U C54U C114U

>  <Comparison operator>
=

>  <Endpoint value>
-2.94

$$$$
